experiment: Clinical pharmacokinetics, plasma LC-MS/MS after single oral dose of AP capsules; type: in vivo, human (healthy volunteers); conditions: human, plasma, oral, 2000 mg, S2; 3.00 h; 2000 mg AP capsules; read-out: Plasma concentration
VALUE_KIND: concentration at 3 h (ng/mL)

> print(dat)
                                   molecule  unit.symbol  recorded.value
1  C=C1CC[C@@H]2[C@](C)(CO[C@@H]3O[C@H](CO)[C@@H](O)[C@H](O)[C@H]3O)CCC[C@@]2(C)[C@@H]1CCC1=CCOC1=O [neoandrographolide]        ng/mL            36.5
2  C=C1CC[C@@H]2[C@](C)(CO)[C@H](O)CC[C@@]2(C)[C@@H]1C/C=C1/C(=O)OC[C@H]1O [andrographolide]        ng/mL            4.68
3  C=C1CC[C@@H]2[C@](C)(CO)[C@H](O)CC[C@@]2(C)[C@@H]1CCC1=CCOC1=O [14-deoxyandrographolide]        ng/mL            4.33
